Known z-score of a selection of molecules
# Assay Notes: ATP-based viability of Huh7 replicon cells – cell-based, CellTiter-Glo luminescence, basal, 48 h, cytotoxicity control for HCV replication inhibitor project, primary screen (AID 1143);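 note: Huh7 hepatoma cells carrying a hepatitis C replication reporter with no stimulus; test concentration not given here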
# Measurement Parameters: higher = more signal, called active from +8 up or from −8 down

[
  {
    "Molecule": "O=C1C2C=CC(C(O)C=Cc3ccc([N+](=O)[O-])cc3)N(Nc3ccccc3F)C2C(=O)N1c1ccccc1 (centres undefined)",
    "z-score": -0.071
  },
  {
    "Molecule": "[N-]=[N+]=Nc1ccccc1[C@H]1OC(c2ccc(OCCCO)cc2)=N[C@@]1(Cc1ccccc1)C(=O)N1CCOCC1",
    "z-score": -4.05
  },
  {
    "Molecule": "O=C(CS)NCCCCCNC(=O)[C@@H]1C[C@@H]2C(=O)NCC(=O)N2[C@@H]1c1ccc(O)cc1",
    "z-score": -0.454
  },
  {
    "Molecule": "CN(C)CCCCCCNC(=O)[C@@H]1C[C@@H]2C(=O)N3CCC[C@H]3C(=O)N2[C@@H]1c1ccc(O)cc1",
    "z-score": -0.892
  }
]

###

# Target Desc: Focal adhesion kinase 1 (Homo sapiens) (UniProt Q05397)
# Sequence (Q05397 whole entry, looked up): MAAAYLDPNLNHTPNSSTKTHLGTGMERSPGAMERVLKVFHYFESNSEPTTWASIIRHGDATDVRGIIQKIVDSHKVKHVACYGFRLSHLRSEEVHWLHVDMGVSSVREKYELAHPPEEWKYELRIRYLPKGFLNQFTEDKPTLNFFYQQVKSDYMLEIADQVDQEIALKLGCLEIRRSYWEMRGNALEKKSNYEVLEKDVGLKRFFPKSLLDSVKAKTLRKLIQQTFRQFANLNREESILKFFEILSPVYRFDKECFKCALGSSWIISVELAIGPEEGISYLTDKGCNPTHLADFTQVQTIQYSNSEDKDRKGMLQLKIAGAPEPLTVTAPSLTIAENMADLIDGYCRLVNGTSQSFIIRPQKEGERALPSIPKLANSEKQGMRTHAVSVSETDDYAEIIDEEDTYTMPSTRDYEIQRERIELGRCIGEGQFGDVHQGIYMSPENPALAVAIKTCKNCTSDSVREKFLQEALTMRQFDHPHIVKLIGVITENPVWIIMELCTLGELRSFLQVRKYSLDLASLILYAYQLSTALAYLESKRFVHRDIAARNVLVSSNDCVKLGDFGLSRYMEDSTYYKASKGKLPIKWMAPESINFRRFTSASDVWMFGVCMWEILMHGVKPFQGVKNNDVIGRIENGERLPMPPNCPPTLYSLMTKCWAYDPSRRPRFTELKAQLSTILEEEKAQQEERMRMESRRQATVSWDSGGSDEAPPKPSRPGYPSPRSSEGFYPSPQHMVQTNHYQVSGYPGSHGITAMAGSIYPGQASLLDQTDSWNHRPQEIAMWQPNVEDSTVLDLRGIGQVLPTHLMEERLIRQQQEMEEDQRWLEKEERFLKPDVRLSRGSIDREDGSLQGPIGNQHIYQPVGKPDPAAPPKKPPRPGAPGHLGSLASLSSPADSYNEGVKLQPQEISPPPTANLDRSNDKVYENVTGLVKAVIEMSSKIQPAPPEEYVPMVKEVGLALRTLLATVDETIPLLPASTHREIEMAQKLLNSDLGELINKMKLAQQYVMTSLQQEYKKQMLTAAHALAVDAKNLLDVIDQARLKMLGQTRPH
# Assay Notes: PTK2 protein binding on printed compound slides – biochemical, small-molecule microarray, 635/667 nm fluorescence, BSA, DTT, primary screen (AID 1130);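 note: composite of spot emission at 667 nm and signal to noise over triplicate slides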
# Measurement Parameters: 635 nm fluorescence, higher = more signal

[
  {
    "Compound": "O=c1cccc(-c2ccccc2Cl)o1",
    "composite z-score": 0.678
  },
  {
    "Compound": "C#CCN(C/C=C/c1ccccc1)[C@H](CO)c1ccccc1",
    "composite z-score": -0.0352
  },
  {
    "Compound": "C=CCC(OC(C)=O)[C@@H]1[C@@H](N(Cc2ccc(-c3cccc(C(F)(F)F)c3)o2)C(=O)Cc2ccc(OC)cc2)c2cc(OCCCO)ccc2N1C(=O)c1ccc2ccccc2c1 (stereo partly drawn)",
    "composite z-score": -0.198
  },
  {
    "Compound": "CCCCCCc1nc(-c2ccc(-c3ccc(Cl)c(Cl)c3)o2)c(C)c2c1[Si](C(C)C)(C(C)C)OC2",
    "composite z-score": -0.0899
  },
  {
    "Compound": "CCOC(=O)C[C@H]1[C@H](OC(=O)c2cc3ccccc3oc2=O)[C@@H](NC(=O)CC(C)C)c2cc(OCCCO)ccc2N1C(=O)c1ccccc1",
    "composite z-score": 0.399
  },
  {
    "Compound": "COC(=O)[C@@]1(Cc2ccc(OC)cc2)[C@H]2c3cc(C(=O)N(C)C)n(Cc4ccc(C(F)(F)F)nc4)c3C[C@H]2CN1C(=O)c1ccccc1",
    "composite z-score": 1.2
  },
  {
    "Compound": "CCOc1ccc(N2C(=O)CSC2c2cccc([N+](=O)[O-])c2)cc1 (stereo not drawn)",
    "composite z-score": 0.65
  },
  {
    "Compound": "COC(=O)[C@]1(Cc2ccccc2)N=C(c2ccc(OCCCO)cc2)O[C@@H]1c1ccccc1N=[N+]=[N-]",
    "composite z-score": 0.442
  }
]

###

# Target Desc: Follistatin (Homo sapiens)
# Assay Notes: FST protein binding to printed compounds – biochemical, small-molecule microarray, 635/667 nm fluorescence, primary screen (AID 1132)
# Measurement Parameters: 635 nm fluorescence, higher = more signal
Known composite z-score of a selection of molecules

[
  {
    "Molecule": "COCCOC(=O)N1C(=O)[C@@]2(c3cc(C#CC4(O)CCCCCC4)ccc31)[C@H](C(=O)Nc1nc3ccccc3s1)[C@H]1C(=O)O[C@H](c3ccccc3)[C@H](c3ccccc3)N1[C@@H]2c1ccc(OCCO)cc1",
    "composite z-score": 1.12
  },
  {
    "Molecule": "COc1cc(CO)cc(I)c1O[C@H]1C=C(C(=O)NCCO)C[C@@H](NC[C@@H]2CCCO2)[C@@H]1O",
    "composite z-score": 0.323
  },
  {
    "Molecule": "CC(C)NC(=O)[C@@]1(Cc2ccccc2I)c2ccccc2C(=O)N(Cc2ccccc2Cl)[C@H]1c1ccc(CO)cc1",
    "composite z-score": 1.19
  },
  {
    "Molecule": "Cc1ccc(S(=O)(=O)N2C[C@@H](C(=O)O)[C@H](Sc3ccccc3)C[C@H]2c2ccccc2)cc1",
    "composite z-score": 0.999
  },
  {
    "Molecule": "O=C1NC(=O)C2C1C=CC(C(O)C=Cc1ccc([N+](=O)[O-])cc1)N2Nc1ccc(Cl)cc1Cl (centres undefined)",
    "composite z-score": 1.04
  },
  {
    "Molecule": "C=C(CCCC)/C(=C/C[C@@H](OC(C)=O)c1cccc(OCCO)c1)c1cnc2ccccc2c1",
    "composite z-score": 1.4
  },
  {
    "Molecule": "CC1CC/C=C\\[C@H]2OC34C=CCN(c5ccc6ccccc6c5)C(=O)[C@H]3N(CCO)C(=O)[C@@H]4C2C(=O)O1 (some centres undefined)",
    "composite z-score": -0.839
  },
  {
    "Molecule": "CCOC(=O)C[C@H]1[C@H](OC(=O)c2ccc(-c3ccccc3)cc2)[C@@H](NC(=O)c2ccccc2)c2cc(OCCCO)ccc2N1C(=O)c1ccc2ccccc2n1",
    "composite z-score": -0.0321
  },
  {
    "Molecule": "COCCOC(=O)N1C(=O)[C@@]2(c3ccccc31)[C@H](c1ccc(OCCO)cc1)N1[C@H](c3ccccc3)[C@H](c3ccccc3)OC(=O)[C@H]1[C@@H]2C(=O)N1CCc2cc(OC)c(OC)cc2C1",
    "composite z-score": 1.3
  },
  {
    "Molecule": "COCCOC(=O)N1C(=O)[C@@]2(c3cc(C#CCCO)ccc31)[C@H](c1ccc(O)cc1)N1[C@H](c3ccccc3)[C@H](c3ccccc3)OC(=O)[C@H]1[C@@H]2C(=O)N1CCN(c2ncccn2)CC1",
    "composite z-score": 1
  },
  {
    "Molecule": "COC(=O)C(CC#Cc1ccc2c(c1)[C@]1(C(=O)N2)[C@H](c2ccccc2OCCO)N2[C@H](c3ccccc3)[C@H](c3ccccc3)OC(=O)[C@H]2[C@@H]1C(N)=O)C(=O)OC",
    "composite z-score": 0.619
  },
  {
    "Molecule": "CC(=CC1CCCCC1)[C@@H](NC(=O)c1cccnc1)c1ccc(-c2ccccc2)cc1",
    "composite z-score": -0.0317
  },
  {
    "Molecule": "C=C(CCCC)/C(=C/C[C@H](OC(C)=O)c1ccccc1OCCO)c1cnc2ccccc2c1",
    "composite z-score": 0.891
  },
  {
    "Molecule": "Cc1ccc([C@H]2C(C(=O)O)=CCN2S(=O)(=O)c2ccc(C)cc2)cc1",
    "composite z-score": 0.585
  }
]

###

Known composite z-score of a selection of molecules
# Assay Notes: binders of probe aHhip on microarray, primary screen, stem cell growth factor project, biochemical, small-molecule microarray, fluorescence 635/667 (AID 1087);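 note: score merges spot fluorescence at 667nm with spot signal to noise ratio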
# Measurement Parameters: higher = more signal

[
  {
    "Molecule": "CCOC(=O)C[C@H]1[C@H](OC(=O)c2ccc(-c3ccccc3)cc2)[C@@H](NC(=O)c2ccccc2)c2cc(OCCCO)ccc2N1C(=O)Cc1ccc(OC)cc1",
    "composite z-score": -0.374
  },
  {
    "Molecule": "COCCOC(=O)N1C(=O)[C@@]2(c3cc(C#CC4=CCCCC4)ccc31)[C@H](C(N)=O)[C@H]1C(=O)O[C@H](c3ccccc3)[C@H](c3ccccc3)N1[C@@H]2c1ccc(O)cc1",
    "composite z-score": 0.0623
  },
  {
    "Molecule": "C=C(CCCC)C(=O)CC[C@H](OC(=O)c1cccnc1)c1ccc(OCCO)cc1",
    "composite z-score": -0.0994
  },
  {
    "Molecule": "[N-]=[N+]=NCc1ccccc1[C@@H]1OC(c2ccc(OCCCO)cc2)=N[C@]1(CCS(=O)(=O)c1ccccc1)C(=O)N1CCCCC1",
    "composite z-score": -0.26
  },
  {
    "Molecule": "C=CC[C@]1(C(=O)NCc2ccccc2)N=C(c2ccc(OCCCO)cc2)O[C@H]1c1ccccc1CN=[N+]=[N-]",
    "composite z-score": 0.0854
  },
  {
    "Molecule": "CC(C)(C)OC(=O)CC[C@]1(C(N)=O)N=C(c2ccc(OCCCO)cc2)O[C@H]1c1ccccc1",
    "composite z-score": 0.294
  },
  {
    "Molecule": "CC(C)[Si](C#C[Si](C(C)C)(C(C)C)C(C)C)(O[C@H](C)c1cn(Cc2ccccc2)nn1)C(C)C",
    "composite z-score": -0.337
  },
  {
    "Molecule": "COc1cc2c(cc1O)C(c1cccs1)N(Cc1ccc([N+](=O)[O-])o1)CC2 (stereo not given)",
    "composite z-score": -0.0994
  },
  {
    "Molecule": "Cc1ccc(S[C@]2(C(=O)O)CC(=O)N(Cc3ccccc3C(F)(F)F)[C@@H]2c2ccc(CO)cc2I)cc1",
    "composite z-score": -0.334
  },
  {
    "Molecule": "C#CCN(C/C=C/c1ccccc1)[C@H](CO)c1ccccc1",
    "composite z-score": 0.0156
  },
  {
    "Molecule": "CN1C(=O)C2C=CC(C(O)c3ccccc3)N(N3CCCCC3)C2C1=O (stereo not given)",
    "composite z-score": -0.0346
  },
  {
    "Molecule": "C=C(C)[C@@H]1CC=C(C(O)C2C=CC3C(=O)NC(=O)C3N2Nc2ccc(Cl)cc2Cl)CC1 (stereo not given in full)",
    "composite z-score": -0.0645
  },
  {
    "Molecule": "O=C(CS)NCCCCCNC(=O)[C@@H]1C[C@@H]2C(=O)NCC(=O)N2[C@@H]1c1cccc(OCCO)c1",
    "composite z-score": -0.166
  },
  {
    "Molecule": "CC(=O)n1cc(C(O)C2C=CC3C(=O)NC(=O)C3N2Nc2ccccn2)c2ccccc21 (stereo not given)",
    "composite z-score": -0.179
  },
  {
    "Molecule": "COCCOC(=O)N1C(=O)[C@@]2(c3cc(C#CC4(O)CCCCCC4)ccc31)[C@H](c1ccccc1OCCO)N1[C@H](c3ccccc3)[C@H](c3ccccc3)OC(=O)[C@H]1[C@@H]2C(=O)N1CCc2cc(OC)c(OC)cc2C1",
    "composite z-score": 0.177
  },
  {
    "Molecule": "CC(C)[Si](C#CCCCC#N)(Oc1ccccc1Br)C(C)C",
    "composite z-score": 0.316
  },
  {
    "Molecule": "COCC(=C=CC[C@H](O)c1cccc(OCCO)c1)CCO",
    "composite z-score": -0.0645
  },
  {
    "Molecule": "Cc1ccc(S[C@]2(C(=O)NCC(C)C)CC(=O)N(Cc3cc(C(F)(F)F)cc(C(F)(F)F)c3)[C@@H]2c2ccc(CO)cc2)cc1",
    "composite z-score": 0.0749
  },
  {
    "Molecule": "COc1ccc([Si](C)(C)[C@H]2[C@H](CCn3cc([C@H](O)c4ccccc4)nn3)O[C@@]3(C(=O)N(C)c4ccccc43)[C@@H]2C)cc1",
    "composite z-score": -0.199
  },
  {
    "Molecule": "COc1ccc(C(O)C2C=CC3C(=O)N(C)C(=O)C3N2N(c2ccccc2)c2ccccc2)c2ccccc12 (stereo not given)",
    "composite z-score": 0.576
  },
  {
    "Molecule": "COc1ccc(C(=O)Nc2cccc(CN3C(=O)[C@]4(O[C@H](CCn5cc(CCO)nn5)[C@@H]([Si](C)(C)c5ccc(OC)cc5)[C@@H]4C)c4ccccc43)c2)cc1",
    "composite z-score": -0.137
  },
  {
    "Molecule": "CCOC(=O)C[C@H]1[C@H](OC(=O)c2ccc(-c3ccccc3)cc2)[C@@H](NC(=O)c2ccccc2)c2cc(OCCCO)ccc2N1C(=O)c1ccc2ccccc2n1",
    "composite z-score": -0.0994
  },
  {
    "Molecule": "C=C(/C(=C/C[C@H](OC(C)=O)c1ccc(OCCO)cc1)c1cc(C(=O)OC)ccc1OC)C(C)C",
    "composite z-score": -0.175
  },
  {
    "Molecule": "COc1ccc([Si](C)(C)[C@H]2[C@H](CC(=O)N3CCC[C@H]3CO)O[C@@]3(C(=O)N(Cc4cccc(N5CCOC5=O)c4)c4ccccc43)[C@@H]2C)cc1",
    "composite z-score": -0.169
  },
  {
    "Molecule": "CCCNC(=O)[C@@H]1c2ccccc2C(=O)N(Cc2ccccc2OC)[C@H]1c1ccc(CO)cc1",
    "composite z-score": -0.201
  },
  {
    "Molecule": "COc1cc2c(cc1OC)CN(C(=O)[C@H]1[C@@H]3C(=O)O[C@@H](c4ccccc4)[C@@H](c4ccccc4)N3[C@@H](c3ccccc3OCCO)[C@]13C(=O)Nc1ccc(C#CCCO)cc13)CC2",
    "composite z-score": -0.0994
  },
  {
    "Molecule": "O=C(NC1CC1)[C@@H]1c2ccccc2C(=O)N(C2Cc3ccccc3C2)[C@H]1c1ccc(CO)cc1",
    "composite z-score": 1.38
  },
  {
    "Molecule": "COCCCNC(=O)[C@@H]1c2ccccc2C(=O)N(Cc2ccccc2OC)[C@H]1c1ccc(CO)cc1",
    "composite z-score": -0.0645
  },
  {
    "Molecule": "CCOc1cc(C(O)C2C=CC3C(=O)N(c4ccccc4)C(=O)C3N2Nc2ccc(C(C)C)cc2)ccc1O (stereo not given)",
    "composite z-score": -0.0237
  },
  {
    "Molecule": "NCCCCCNC(=O)[C@H]1C[C@H]2C(=O)N[C@@H](Cc3ccccc3)C(=O)N2[C@H]1c1cccc(OCCO)c1",
    "composite z-score": 0.705
  }
]

Values were extracted from PubChem BioAssay.
